# Test system: Plasmodium falciparum
# Assay Method Text: Screen against P. falciparum Asexual Blood Stage (ABS), at 5uM
# Format: functional, Dd2
# Study Conditions: tested at 5 uM
The whole screen tested about 65,000 compounds, of which about 2,100 (3.2%) showed an effect of 50% or more. The median lay at about -52%. Shown is part of a subset that was picked to be rich in strong results.
Test Readout: INHIBITION (%)
Write down the numeric answer in % and omit the unit.

INHIBITION for Cc1cc(C(=O)N2CCCC(O)(CN3CCCC3)C2)ccc1Cl (stereo not drawn) ?
-21.4

INHIBITION for O=C1NCC2CN(Cc3ccccc3OCc3ccccn3)CCN12 (stereo not drawn) ?
-16.2

INHIBITION for COc1ccc(NC(C)c2nnnn2-c2ccccc2)cc1F (stereo not drawn) ?
-2.6

====

# System: Plasmodium falciparum
# Assay Method Text: Screen against P. falciparum Asexual Blood Stage (ABS), at 5uM
# Type: functional, Dd2
# Study Conditions: tested at 5 uM
The whole screen tested about 65,000 compounds, of which about 2,100 (3.2%) showed an effect of 50% or more. The median lay at about -52%. For the sample, strong results were picked, then their nearest neighbours and some compounds at random.
Test Readout: INHIBITION (%)
Write down the numeric answer in % and omit the unit.

INHIBITION for `Cn1ncc2c(NCCC34CCCN3CCC4)nc(C3CCCC3)nc21` ?
63.3

INHIBITION for `CS(=O)(=O)NCc1nnc2n1CCN(Cc1ccncc1)C2` ?
-3.62

INHIBITION for `CCOC(=O)N1CCN(c2nc(CCN)nc3sc(C)c(C)c23)CC1` ?
66.1

INHIBITION for `Cc1sc2nc(CCN)nc(N3CCS(=O)(=O)CC3)c2c1C` ?
-119

INHIBITION for `CN(C)[C@@H]1CO[C@H](CNC(=O)Nc2ccccc2)[C@H]1O` ?
-60.7

INHIBITION for `CN(C)CC(=O)N1CCC2(CCN(Cc3cccc(F)c3)CC2)C1` ?
36.4

INHIBITION for `Cc1ccc2cccc(S(=O)(=O)N(C)CC3CCN(C)CC3)c2n1` ?
58.6

INHIBITION for `CNC(=O)c1ccc(CNc2ccncc2Cl)cc1` ?
-24.6

INHIBITION for `O=C(NC[C@H]1OC[C@@H](NC2CCC2)[C@@H]1O)Nc1ccccc1` ?
-141

INHIBITION for Cn1ccc(C(=O)NC2CCC23CCN(Cc2nccs2)CC3)c1 (stereo not given) ?
-44.3

====

# Tested on: Plasmodium falciparum
# Assay Method Text: Screen against P. falciparum Asexual Blood Stage (ABS), at 5uM
# Assay type: functional, Dd2
# Study Conditions: tested at 5 uM
The whole screen tested about 65,000 compounds, of which about 2,100 (3.2%) showed an effect of 50% or more. The median lay at about -52%. The list comes from a sample in which strong results are over-represented; it also holds close analogues and randomly drawn compounds.
Decide by INHIBITION: equal to or exceeding -50% means True, less means False.

API: above_or_equal(metric=INHIBITION, cutoff=-50%) for item COc1c(CNC2CCCc3ccccc32)c(C)nn1C (stereo not drawn)
True

API: above_or_equal(metric=INHIBITION, cutoff=-50%) for item `Cc1cnn(CCNCc2csc(-c3ccco3)n2)c1`
True

API: above_or_equal(metric=INHIBITION, cutoff=-50%) for item COc1c(CNC2CCCOc3ccccc32)c(C(C)C)nn1C (stereo not drawn)
True

API: above_or_equal(metric=INHIBITION, cutoff=-50%) for item `Cc1nccc(NCc2cncc3c2CCN(S(C)(=O)=O)C3)n1`
False

API: above_or_equal(metric=INHIBITION, cutoff=-50%) for item `O=C(c1cscn1)N1CCc2c(COCC3CC3)cncc2C1`
False

API: above_or_equal(metric=INHIBITION, cutoff=-50%) for item `C/C=C(\C)CN1C[C@H](NC(=O)CCOC)[C@@H](c2ccc(C)o2)C1`
True

API: above_or_equal(metric=INHIBITION, cutoff=-50%) for item CCOCC1CN(C2CCCC2)Cc2cnn(CC3CCOCC3)c21 (stereo not drawn)
True

API: above_or_equal(metric=INHIBITION, cutoff=-50%) for item CC(C)(C)CC(=O)NC(C)(C(N)=O)c1cccc(Cl)c1 (stereo not drawn)
False

API: above_or_equal(metric=INHIBITION, cutoff=-50%) for item `CCC[C@H]1CN(S(=O)(=O)N(C)Cc2ccccc2)C[C@@H]1N`
True

API: above_or_equal(metric=INHIBITION, cutoff=-50%) for item `O=S(=O)(Cc1ccc(F)cc1)NCc1nnc2n1CCC2`
False

API: above_or_equal(metric=INHIBITION, cutoff=-50%) for item `O=C(COc1ccc2c(c1)CCC2)NS(=O)(=O)c1cccnc1`
True

API: above_or_equal(metric=INHIBITION, cutoff=-50%) for item `Clc1cc(NCc2ccncc2)nc2[nH]ccc12`
True

API: above_or_equal(metric=INHIBITION, cutoff=-50%) for item Fc1ccc(CNCC2OCCc3cn(CC4CC4)nc32)cc1 (stereo not drawn)
True

API: above_or_equal(metric=INHIBITION, cutoff=-50%) for item COc1c(CNC2CCc3c(F)cccc32)c(C)nn1C (stereo not drawn)
True

API: above_or_equal(metric=INHIBITION, cutoff=-50%) for item `Cc1ccc(OCC(=O)NS(=O)(=O)c2cccnc2)cc1C`
True

API: above_or_equal(metric=INHIBITION, cutoff=-50%) for item `c1coc(COCc2ncn3c2CN(Cc2cccs2)CCC3)c1`
False

API: above_or_equal(metric=INHIBITION, cutoff=-50%) for item COc1c(CNC2CCCc3ccccc32)c(C(C)C)nn1C (stereo not drawn)
True

API: above_or_equal(metric=INHIBITION, cutoff=-50%) for item `Clc1cc(NCc2nccs2)nc2[nH]ccc12`
False
